# IC50 values compiled below
Tested on: MDA-GSC 8–11
Assay: Cell viability dose response (IC50), MDA-GSC 8–11
Assay type: cell-based
Settings: Homo sapiens, mean of three independent experiments
readout-label: IC50

>>> value("C/C(=N\\NC(=O)c1cccc(S(=O)(=O)N2CCN(C)CC2)c1)c1cc(Cl)ccc1O")
"12.4 µM"
>>> value("c1ccc([C@@H]2C[C@H]2NC2CCNCC2)cc1")
"726 µM"
>>> value("CN1CCN(C(=O)CN[C@H]2C[C@@H]2c2ccc(OCc3ccccc3)cc2)CC1")
"> 50 µM"
>>> value("CN1CCN(C(=O)[C@H](CCCN[C@@H]2C[C@H]2c2ccc(F)cc2)NC(=O)c2ccc(-n3ccnn3)cc2)CC1")
"56.1 µM"
>>> value("NC1CC1c1ccccc1 (stereo not shown)")
"> 5000 µM"
>>> value("N[C@H]1CC[C@H](N[C@@H]2C[C@H]2c2ccccc2)CC1")
"64.5 µM"
>>> value("Nc1nnc(CN[C@@H]2C[C@H]2c2ccc(OCc3ccccc3)cc2)o1")
"> 50 µM"

###

Test system: MDA-GSC lines
Assay: Cell viability across the panel of nine MDA-GSC lines
Type: cell-based, Human
Conditions: many/several MDA-GSC lines, dose response curves Figure 2
Examples of compounds with documented concentrations at which MDA-GSC viability was reduced follow.
readout-label: concentrations at which MDA-GSC viability was reduced

>>> value("N[C@H]1CC[C@H](N[C@@H]2C[C@H]2c2ccccc2)CC1")
"50 to 90 µM"
>>> value("c1ccc([C@@H]2C[C@H]2NC2CCNCC2)cc1")
"250 to 750 µM"
>>> value("CN1CCN(C(=O)CN[C@H]2C[C@@H]2c2ccc(OCc3ccccc3)cc2)CC1")
"20 to 50 µM"
>>> value("CN1CCN(C(=O)[C@H](CCCN[C@@H]2C[C@H]2c2ccc(F)cc2)NC(=O)c2ccc(-n3ccnn3)cc2)CC1")
"< 50 µM"
